Here the recorded Vd is given for each entry.
procedure_summary: Volume of distribution at steady state in rat at 2 mg/kg, iv
Type: ADME, organism-based
Parameters: dose 2 mg/kg, route intravenous
experimental_conditions: in vivo, read-out: Vdss

compound | readout_units | Vd
Cc1ccc(-n2nccn2)c(C(=O)N2CCCN(c3ncc4ccccc4n3)CC2)c1 | L/kg | 1.08
Cc1ccc(-n2nccn2)c(C(=O)N2CCN(c3nc4cc(Cl)ccc4o3)CC[C@H]2C)c1 [SUVOREXANT] | L/kg | 2.6

###

procedure_summary: Terminal half life in rat at 2 mg/kg, iv
Type: ADME, organism-based
Set-up: dose 2 mg/kg, route intravenous
experimental_conditions: in vivo, read-out: beta t1/2 (converted)

compound | half-life
Cc1ccc(-n2nccn2)c(C(=O)N2CCCN(c3ncc4ccccc4n3)CC2)c1 | 21 min
Cc1ccc(-n2nccn2)c(C(=O)N2CCN(c3nc4cc(Cl)ccc4o3)CC[C@H]2C)c1 [SUVOREXANT] | 36 min

###

procedure_summary: Plasma protein binding in rat
Type: ADME, cell-free
experimental_conditions: read-out: PPB

smiles_representation | fraction unbound
Cc1ccc(-n2nccn2)c(C(=O)N2CCN(c3nc4cc(Cl)ccc4o3)CC[C@H]2C)c1 | 0.01

###

procedure_summary: Cmax in Sprague-Dawley rat CSF at 30 mg/kg/day, po
Type: ADME, organism-based, Cerebrospinal fluid
Parameters: dose 30 mg/kg/day, route oral

smiles_representation | Cmax / nM
Cc1ccc(-n2nccn2)c(C(=O)N2CCN(c3nc4cc(Cl)ccc4o3)CC[C@H]2C)c1 | 2100

###

procedure_summary: AUC in rat at 10 mg/kg, po
Type: ADME, organism-based
Parameters: dose 10 mg/kg, route oral
experimental_conditions: plasma
result_type: AUC (µM·h)

compound | readout_units | number
Cc1ccc(-n2nccn2)c(C(=O)N2CCN(c3nc4cc(Cl)ccc4o3)CC[C@H]2C)c1 [SUVOREXANT] | µM·h | 1.7

###

Here the recorded IC50 is given for each entry.
tested_on: Orexin/Hypocretin receptor type 1 (Homo sapiens, UniProt O43613)
Sequence (O43613 whole entry): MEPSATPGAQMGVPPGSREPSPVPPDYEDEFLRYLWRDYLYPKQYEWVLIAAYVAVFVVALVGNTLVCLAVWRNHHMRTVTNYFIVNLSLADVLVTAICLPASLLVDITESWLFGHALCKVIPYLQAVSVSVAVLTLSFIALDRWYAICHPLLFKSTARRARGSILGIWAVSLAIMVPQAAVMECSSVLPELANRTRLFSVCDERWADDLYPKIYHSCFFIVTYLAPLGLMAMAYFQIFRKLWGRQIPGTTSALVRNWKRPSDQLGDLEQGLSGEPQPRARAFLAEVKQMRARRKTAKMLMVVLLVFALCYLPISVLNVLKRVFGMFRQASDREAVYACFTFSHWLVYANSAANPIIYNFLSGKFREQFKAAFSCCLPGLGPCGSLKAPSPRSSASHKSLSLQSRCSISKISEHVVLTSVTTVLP
procedure_summary: Antagonist activity at human OX1R expressed in CHO cells assessed as inhibition of orexin-A-induced intracellular calcium mobilization after 5 mins by FLIPR assay

smiles_representation | IC50 / µM
C[C@@H]1CCN(c2cnc3cc(F)c(F)cc3n2)CCN1C(=O)c1ccccc1-n1nccn1 | 0.028
C[C@@H]1CCN(c2ncc3ccccc3n2)CCN1C(=O)c1ccccc1-n1nccn1 | 0.026
C[C@@H]1CCN(c2ncc3c(n2)CCCC3)CCN1C(=O)c1ccccc1-n1nccn1 | 0.024
Cc1ccc(-n2nccn2)c(C(=O)N2CCN(c3ncc4ccccc4n3)CC[C@H]2C)c1 | 0.03
Cc1ccc(-n2nccn2)c(C(=O)N2CCN(c3nc4ccccc4o3)CC[C@H]2C)c1 | 0.024

###

procedure_summary: Oral bioavailability in rat at 100 mg/kg
Type: ADME, organism-based
experimental_conditions: in vivo

smiles_representation | bioavailability
Cc1ccc(-n2nccn2)c(C(=O)N2CCCN(c3ncc4ccccc4n3)CC2)c1 | 2%

###

procedure_summary: Clearance in dog at 0.5 mg/kg, iv
Format: ADME, organism-based, Canis lupus familiaris
Parameters: dose 0.5 mg/kg, route intravenous
experimental_conditions: in vivo
Rule: clearance under 5 mL/min/kg gives Not met, otherwise Met.

smiles_representation | class_assignment
Cc1ccc(-n2nccn2)c(C(=O)N2CCN(c3ncc4ccccc4n3)CC[C@H]2C)c1 | Met
C[C@@H]1CCN(c2ncc3ccccc3n2)CCN1C(=O)c1ccccc1-n1nccn1 | Met
Cc1ccc(-n2nccn2)c(C(=O)N2CCN(c3nc4ccccc4o3)CC[C@H]2C)c1 | Not met
Cc1ccc(-n2nccn2)c(C(=O)N2CCCN(c3ncc4ccccc4n3)CC2)c1 | Met
C[C@@H]1CCN(c2ncc3c(n2)CCCC3)CCN1C(=O)c1ccccc1-n1nccn1 | Met
Cc1ccc(-n2nccn2)c(C(=O)N2CCN(c3ncc4cc(F)ccc4n3)CC[C@H]2C)c1 | Met
Cc1ccc(-n2nccn2)c(C(=O)N2CCN(c3nc4cc(Cl)ccc4o3)CC[C@H]2C)c1 | Not met
